Please go through the items and note down their IC50.
# Target Entity: BRD4 (BD1) (Homo sapiens, UniProt O60885)
# Procedure Text: Homogeneous time-resolved fluorescence binding assay, BRD4
# Condition Info: IC50 BRD4 (BD1), mean ± SD from three separate experiments

# input Please give the measured IC50 for this molecule: `CCS(=O)(=O)Nc1ccc(Oc2ccc(F)cc2F)c(-c2cc(Nc3ccncn3)c(=O)n(C)c2)c1`
# output > 100 nM

# input Tell me the measured IC50 of `CCS(=O)(=O)Nc1ccc(Oc2ccc(F)cc2F)c(-c2cc(NC(=O)OCCOC)c(=O)n(C)c2)c1` , please.
# output > 100 nM

# input Look up IC50: COc1nnc2ccc(N3CCC(c4ccc(OCCN5CCN(C)C(=O)[C@H]5C)cc4)CC3)nn12 [AZD5153 (4), reference compound]
# output 18.2 nM

# input Item `CCS(=O)(=O)Nc1ccc(Oc2ccc(F)cc2F)c(-c2cc(Nc3ccccn3)c(=O)n(C)c2)c1` has what recorded IC50?
# output > 100 nM
